target: T1, human A-beta(1-40) peptide, monomeric (BAM) (human, biotin at the C-terminus in capture ELISA, SPR and TR-FRET; not biotinylated where coated directly (Example 7)); test: 42D4 TR-FRET assay (labelled ABII42D4)
T1 construct: synthetic peptide (Anaspec), TFA/HFIP treated to give monomer; also called monomeric A-beta
pIC50: −log10 of the molar value.

[
  {
    "BINDER": "ABII42D4 (VHH, also called ABIIPMP42D4) VHH: EVQLVESGGGLVLAGGSLRLSCVHSGPTFSTDTMGWFRQAPGKEREFVAAVTWNSGRTNYADSVKGRFTVSRDNTRNAAYLQMSGLKDEDTAVYYCTAHRLVVGGTSVGDWRYWGQGTQVTVSS",
    "BOUND OPERATOR": "=",
    "pIC50": 7.29
  },
  {
    "BINDER": "ABII60A10 = ABII050 (VHH) VHH: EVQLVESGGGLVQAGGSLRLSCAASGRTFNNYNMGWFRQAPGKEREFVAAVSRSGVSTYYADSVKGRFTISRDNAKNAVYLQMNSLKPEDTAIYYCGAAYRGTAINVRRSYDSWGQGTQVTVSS",
    "BOUND OPERATOR": "<",
    "pIC50": 6.00
  },
  {
    "BINDER": "ABII42D4-9GS-ABII42D4 (designed binder, VHH dimer with two identical domains; also called bivalent ABII42D4) EVQLVESGGGLVLAGGSLRLSCVHSGPTFSTDTMGWFRQAPGKEREFVAAVTWNSGRTNYADSVKGRFTVSRDNTRNAAYLQMSGLKDEDTAVYYCTAHRLVVGGTSVGDWRYWGQGTQVTVSSGGGGSGGGGEVQLVESGGGLVLAGGSLRLSCVHSGPTFSTDTMGWFRQAPGKEREFVAAVTWNSGRTNYADSVKGRFTVSRDNTRNAAYLQMSGLKDEDTAVYYCTAHRLVVGGTSVGDWRYWGQGTQVTVSS",
    "BOUND OPERATOR": "=",
    "pIC50": 7.80
  }
]
